Could you please report measured self-cleavage for the items listed next?
B1: LINE1-full (parent)
chain: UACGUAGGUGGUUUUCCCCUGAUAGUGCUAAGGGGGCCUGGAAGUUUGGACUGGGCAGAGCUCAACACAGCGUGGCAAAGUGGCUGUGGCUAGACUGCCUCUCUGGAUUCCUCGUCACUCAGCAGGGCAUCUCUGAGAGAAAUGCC

# Variants of: B1
# Test name: self-cleavage, relative activity (ratio to wild type); higher = more cleavage; in vitro, sequencing; the parent is a self-cleaving ribozyme
One number for each entry.

| Construct sequence | self-cleavage |
| --- | --- |
| UACGUAGGUGGUUUUCCCCUGGUAGUGCUAAGGUGGCCUGGAAGUUUGGACUGGGCAGAGCUCAACACAGCGUGGCAAAGUGGCUGUGGCUAGACUGCCUCUCUGGAUUCCUCGUCACUCAGCAGGGCAUCUCUGAGAGAAAUGCC | 1.66 |
| UACGUACGUGGUUUUCCCCUGAUAGUGCUAAGGGGGCCUGGAAGUUUGGACUGGGCAGAGCUCAACACGGCGUGGCAAAGUGGCUGUGGCUAGACUGCCUCUCUGGAUUCCUCGUCACUCAGCAGGGCAUCUCUGAGAGAAAUGCC | 0.79 |
| UACGUAGGUGGUUUUCCCCUGAUAGUGCUAAGGGGGCCUGGAAGUUUGGACUGGGCAGAGCUCAGCACAGCGUGGCAAAGUGGCUGUGGCUAGACUGCCUCUCUGGAUUCCUCGUCACUCAGCAGGCCAUCUCUGAGAGAAAUGCC | 0.06 |

Please find the next variant below.
If you can, please state the reported self-cleavage value of UACGUAGGUGGUUUUCCCCUGAUUGUGCUAAGGGGGCCUGGAAGUUUGGACUGGGCAGAGCUCAACACAGCGUGGCAGAGUGGCUGUGGCUAGACUGCCUCUCUGGAUUCCUCGUCACUCAGCAGGGCAUCUCUGAGAGAAAUGCC .
1.31
